The reported measurements were obtained from PubChem BioAssay (NCI).

tested on: MOLT-4 leukemia; assay: NCI-60 one-dose screen, 48 h; conditions: 10 µM unless noted
About 83,000 compounds went through this panel and 20% of them were active in at least one assay; those are over-represented in the sample as a whole. Active and inactive are the calls of the source. How the source made its calls: active means growth percent below 10; inactive means the rest.
Outcomes: t = active, f = inactive

INSERT INTO results (molecule, assigned_category) VALUES
  ('C(=N\Nc1ccc2ccccc2n1)/c1ccccn1', 't'),
  ('COc1cc(NCc2ccc3nc(N)nc(N)c3c2C)cc(OC)c1OC (tested in a mixture with another compound)', 'f'),
  ('CCCCCCCCCCCCCCCc1ccc(C(=O)C[n+]2ccccc2)cc1', 't');

###

Listed next: entries and their corresponding growth.
system: UACC-62 melanoma; assay: NCI-60 one-dose screen, 48 h (100 = growth as untreated, 0 = no growth, -100 = all killed); settings: 10 µM unless noted
About 83,000 compounds went through this panel and 20% of them were active in at least one assay; those are over-represented in the sample as a whole.
Assay readout: growth (%)

INSERT INTO measurements (compound, data_value) VALUES
  ('CCOC(=O)C1(C)CCCC1N (stereo unspecified)', 91.6),
  ('c1csc(-c2[nH]nc3c2CCc2ccccc2-3)c1', 90),
  ('Cc1cc(C(=O)c2ccc(Cl)cc2)ccc1O', 89.8),
  ('CCOC(=O)c1[nH]c(C#N)c(C(=O)OCC)c1C', 91.2),
  ('Nc1cc(-c2ccccc2)ccc1O', 88),
  ('CC(=O)OC1CC2CCC1(C)C2(C)C (stereo unspecified)', 92.6);

###

system: NCI-H522 lung; assay: NCI-60 one-dose screen, 48 h (100 = growth as untreated, 0 = no growth, -100 = all killed); details: 10 µM unless noted
The panel holds about 83,000 compounds, 20% with a hit somewhere; the sample as a whole holds those more often. Activity calls are given as the source filed them. How the source made its calls: active means growth percent below 10; inactive means the rest.
Recorded growth values for a group of compounds are listed next.
Assay readout: growth

INSERT INTO measurements (compound, data_value) VALUES
  ('Oc1ccccc1N=Cc1ccccc1', '81.1% (inactive)'),
  ('CCCCCCCCCCCCN1C(C)=CS/C1=C\C=C\c1scc(C)[n+]1CCCCCCCCCCCC', '3.47% (active)'),
  ('Cc1ccc(NC2=CC(=O)C(=O)c3ccccc32)cc1', '18.8% (inactive)'),
  ('Nc1cc(-c2ccccc2)ccc1O', '96.3% (inactive)'),
  ('COc1cc(/C=C/C(=O)CC(=O)/C=C/c2ccc(O)c(OC)c2)ccc1O', '-22.5% (active)'),
  ('CCOC(=O)C1=C(C(=O)c2ccccc2)C(c2cccc([N+](=O)[O-])c2)C(C(=O)c2ccccc2)=C(C(=O)OCC)N1', '83.5% (inactive)'),
  ('Cc1ccc2cccc(OC(=O)Nc3cccc(C(F)(F)F)c3)c2n1', '37.2% (inactive)'),
  ('CCC[CH2][Sn]1([CH2]CCC)[O]C2C(CO)OC(n3ccc(N)nc3=O)C2[O]1 (configuration not stated)', '-78.9% (active)'),
  ('CC1(C)N=c2cc3c(cc2N1c1ccc(Cl)cc1)=Nc1ccccc1N3c1ccc(Cl)cc1', '-22.1% (active)'),
  ('CC(=O)c1c(O)c(C)c(O)c2c1OC1=CC(=O)C(C(C)=O)C(=O)C12C (configuration not stated)', '71.7% (inactive)'),
  ('CC1CC(C)(C)OB(OC(C)CC(C)(C)OB2OC(C)CC(C)(C)O2)O1 (configuration not stated)', '81.6% (inactive)'),
  ('Oc1c(Cl)cc(Cl)cc1C=NCC1CCC(CN=Cc2cc(Cl)cc(Cl)c2O)CC1 (configuration not stated)', '91.6% (inactive)'),
  ('O=[N+]([O-])CC(O)c1ccccc1 (configuration not stated)', '97.3% (inactive)'),
  ('Clc1ccc(-n2ncc3c(NCCCN4CCOCC4)ncnc32)cc1', '94.7% (inactive)'),
  ('COc1c(C)c2c(c(O)c1C/C=C(\C)CCC(=O)O)C(=O)OC2', '19.4% (inactive)'),
  ('OC(c1cc(C23CC4CC(CC(C4)C2)C3)nc2c(Cl)cc(Cl)cc12)C1CCCCN1 (configuration not stated)', '-81% (active)'),
  ('CCN(CC)CC(O)c1cc(-c2ccc(Cl)cc2)nc2cc(Cl)ccc12 (configuration not stated)', '-70.4% (active)');
